Data origin, for the record: patent US10526316B2

# System: Akt phosphorylated at Ser473 in PC-3 cells
# assayInfo: Cellular assay: phosphorylation of Akt at Ser473 in PC-3 cells (MSD ELISA)
# Assay type: cell-based
# details: PC-3 cells, 60 min compound incubation, MSD ELISA; read-out: IC50 pAkt_S473
pIC50: −log10 of the molar value.
In this section we review reported pIC50 values for a set of molecules.

Enquiry: Which pIC50 reading was recorded for the molecule CC(Nc1ccc(F)c(F)c1)c1cc(C(=O)N[C@H]2CCNC2)cc2ncc(N3CCOCC3)nc12 (single isomer, unassigned) [Compound 374b] ?
Return: < 6.29

Enquiry: Same question for CC(Nc1cc(F)cc(F)c1)c1cc(C(=O)NC[C@@H](C)O)cc2ncc(N3CCOCC3)nc12 (single isomer, unassigned) [Compound 202] please.
Return: < 6.29

Enquiry: Same question for CNCCNC(=O)c1cc(C(C)Oc2ccc(F)c(F)c2)c2nc(N3CCOCC3)cnc2c1 (single isomer, unassigned) [Compound 344b] please.
Return: < 6.29

Enquiry: Same question for CN[C@H]1CCN(C(=O)c2cc(C(C)Oc3cc(F)c(F)c(F)c3)c3nc(N4CCOCC4)cnc3c2)C1 (single isomer, unassigned) [Compound 405a] please.
Return: < 6.29

Enquiry: Same question for CC(Nc1ccc(F)c(F)c1)c1cc(C(=O)NCC2CCCN2)cc2ncc(N3CCOCC3)nc12 (single isomer, unassigned) [Compound 329b] please.
Return: < 6.29

Enquiry: Same question for CC(Nc1cc(F)cc(F)c1)c1cc(C(=O)NS(N)(=O)=O)cc2ncc(N3CCOCC3)nc12 (single isomer, unassigned) [Compound 243b] please.
Return: < 6.29

Enquiry: Same question for COC(=O)c1cc(C2CCCN2c2cc(F)cc(F)c2)c2nc(N3CCOCC3)cnc2c1 (single isomer, unassigned) [Compound 31] please.
Return: < 6.29

Enquiry: Same question for CC(Oc1ccc(F)c(F)c1)c1cc(C(=O)N2CCN3CCC[C@H]3C2)cc2ncc(N3CCOCC3)nc12 (single isomer, unassigned) [Compound 369b] please.
Return: < 6.29

Enquiry: Same question for CNCCNC(=O)c1cc([C@H](C)Oc2cccc(F)c2)c2nc(N3CCOCC3)cnc2c1 [Compound 123a] please.
Return: < 6.29

Enquiry: Same question for COC(=O)c1cc(C(C)Nc2cc(F)cc(F)c2)c2nc(N3CCOCC3)cnc2c1 (stereo not shown) please.
Return: ~6.67

Enquiry: Same question for CN1CCN(C(=O)c2cc(C3CCCN3c3cc(F)cc(F)c3)c3nc(N4CCOCC4)cnc3c2)CC1 (single isomer, unassigned) [Compound 57] please.
Return: ~8.30

Enquiry: Same question for CC(Nc1cc(F)cc(F)c1)c1cc(CO)cc2ncc(N3CCOCC3)nc12 (single isomer, unassigned) [Compound 154b] please.
Return: < 6.29

Enquiry: Same question for CCN1CCN(C(=O)c2cc(C(C)Oc3cccc(F)c3)c3nc(N4CCOCC4)cnc3c2)CC1 (single isomer, unassigned) please.
Return: < 6.29
